Origin of the recorded values: PubChem BioAssay (NCI)

Each record here notes measured growth.
Test system: NCI-H460 lung
Assay: NCI-60 one-dose screen, 48 h (100 = growth as untreated, 0 = no growth, -100 = all killed)
Settings: 10 µM unless noted
About 83,000 compounds went through this panel and 20% of them were active in at least one assay; those are over-represented in the sample as a whole.
Value expressed in %; do not type the unit.

# example entries with known answers
* Cc1cc2c(cc1Cl)C(=O)/C(=C/c1ccccc1)O2 | 24.6
* COc1cc2c(c(OC)c1OC)C(=O)CC(c1cccc(NC(=O)c3cc(NC(=O)[C@H](CO)NC(=O)OC(C)(C)C)ccc3Cl)c1)O2 (stereo partly drawn) | 34.3
* CCCCCCCCc1ccc(S(=O)(=O)Nc2ccc(CC)cc2C(=O)O)cc1 | 96.7
* Cn1cc(NC(=O)c2cc(NC(=O)c3ccc(C#Cc4ccccc4)cc3)cn2C)cc1C(=O)NCCCN1CCOCC1 | -15.3

[Q] Recorded growth for `Cc1cc(=O)oc2cc(OCCCCOc3ccc(/C=C/C(=O)Nc4ccccc4N)cc3)ccc12` , please?
[A] 45.2

[Q] For the compound CC1(C)CC[C@]2(C(=O)Nc3ccccc3)CC[C@]3(C)C(=CCC4[C@@]5(C)C[C@@H](O)[C@H](O)[C@@](C)(CO)C5CC[C@]43C)C2C1 (stereo partly drawn) , what growth is on record?
[A] 51.4

[Q] Look up growth: `N#Cc1c(-c2cccc(O)c2O)cc(-c2ccc3ccccc3c2)[nH]c1=O`
[A] 41.7

[Q] Reported growth, compound `Cc1c(C(=O)NNC(=O)Nc2ccc(Cl)cc2)nnn1-c1ccc(Br)cc1` : ____
[A] 107

[Q] Any idea what growth was measured for COC(OC)C1=C(C)OC(N)=C(C#N)C12C(=O)Nc1ccccc12 (stereo not drawn) ?
[A] 97.2

[Q] Query: growth; subject: COc1ccc(N2N=C(c3ccc4c(c3)OCO4)CC2c2cccc(NC(=O)CCNS(=O)(=O)c3ccc(Cl)cc3)c2)cc1 (stereo not drawn)
[A] 22.3
